Taken from patent US12624044B2.

# test_target: SMARCA4 (Homo sapiens)
# Construct: SMARCA2 and SMARCA4 protein degradation in MV4-11 cells; endogenous in cells; host or cells: MV4-11
# Sequence (P51532 whole entry): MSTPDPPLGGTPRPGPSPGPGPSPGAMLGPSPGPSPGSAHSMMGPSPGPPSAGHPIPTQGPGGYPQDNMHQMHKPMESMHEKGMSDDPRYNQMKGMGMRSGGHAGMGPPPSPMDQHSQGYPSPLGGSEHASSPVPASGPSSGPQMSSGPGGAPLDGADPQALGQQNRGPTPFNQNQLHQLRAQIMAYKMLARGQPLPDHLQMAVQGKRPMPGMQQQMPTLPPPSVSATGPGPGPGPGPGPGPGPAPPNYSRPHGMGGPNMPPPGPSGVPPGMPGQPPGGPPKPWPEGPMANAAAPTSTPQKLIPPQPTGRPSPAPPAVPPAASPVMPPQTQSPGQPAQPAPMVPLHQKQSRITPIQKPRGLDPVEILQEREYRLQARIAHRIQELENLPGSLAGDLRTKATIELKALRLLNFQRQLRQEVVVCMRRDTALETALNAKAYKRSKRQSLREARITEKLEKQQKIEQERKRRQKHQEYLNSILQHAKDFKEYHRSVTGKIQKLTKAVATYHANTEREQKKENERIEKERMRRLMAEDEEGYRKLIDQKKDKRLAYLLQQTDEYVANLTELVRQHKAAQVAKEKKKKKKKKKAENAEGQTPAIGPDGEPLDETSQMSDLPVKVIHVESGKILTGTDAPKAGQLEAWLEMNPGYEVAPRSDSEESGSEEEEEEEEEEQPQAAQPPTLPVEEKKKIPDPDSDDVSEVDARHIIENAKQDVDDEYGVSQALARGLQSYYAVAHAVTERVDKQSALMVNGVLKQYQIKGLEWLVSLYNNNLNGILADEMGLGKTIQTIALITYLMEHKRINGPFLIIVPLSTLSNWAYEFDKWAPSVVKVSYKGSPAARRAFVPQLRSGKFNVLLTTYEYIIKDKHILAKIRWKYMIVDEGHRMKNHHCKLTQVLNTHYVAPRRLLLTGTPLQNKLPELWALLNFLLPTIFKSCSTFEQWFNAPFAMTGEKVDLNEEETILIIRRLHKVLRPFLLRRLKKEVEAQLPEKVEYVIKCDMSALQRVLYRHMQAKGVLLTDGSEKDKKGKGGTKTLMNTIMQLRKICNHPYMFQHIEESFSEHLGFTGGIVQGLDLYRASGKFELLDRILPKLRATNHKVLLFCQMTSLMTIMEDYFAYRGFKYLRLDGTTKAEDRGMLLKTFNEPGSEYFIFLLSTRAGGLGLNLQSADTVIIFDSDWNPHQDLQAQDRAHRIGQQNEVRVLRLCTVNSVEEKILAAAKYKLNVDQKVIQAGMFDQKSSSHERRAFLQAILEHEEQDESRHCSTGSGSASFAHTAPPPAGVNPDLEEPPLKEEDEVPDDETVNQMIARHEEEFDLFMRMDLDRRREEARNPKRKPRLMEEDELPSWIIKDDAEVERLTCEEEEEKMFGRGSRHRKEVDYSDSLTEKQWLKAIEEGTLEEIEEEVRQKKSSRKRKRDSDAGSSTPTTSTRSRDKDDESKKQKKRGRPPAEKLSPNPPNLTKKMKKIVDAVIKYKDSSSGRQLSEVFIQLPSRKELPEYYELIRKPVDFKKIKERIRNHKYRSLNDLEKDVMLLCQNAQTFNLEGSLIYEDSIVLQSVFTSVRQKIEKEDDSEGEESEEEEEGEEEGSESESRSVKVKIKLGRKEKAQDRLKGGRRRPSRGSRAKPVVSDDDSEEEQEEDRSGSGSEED
# procedure_details: SMARCA4 Western blot MV4-11 degradation
# Format: cell-based
# condition_set: MV4-11, MV4-11 cells, 24 h, read-out: SMARCA4 WB MV411 degradation 24 h: Average Dmax %
result_type: Dmax

1. Cc1ncsc1-c1ccc(CNC(=O)[C@@H]2C[C@@H](O)CN2C(=O)[C@@H](NC(=O)[C@@H]2CCN(Cc3cnc(N4C5CCC4CN(c4cc(-c6ccccc6O)nnc4N)C5)nc3)C2)C(C)(C)C)cc1 | > 90%

Exam item: Item Cc1ncsc1-c1ccc(CNC(=O)[C@@H]2C[C@@H](O)CN2C(=O)[C@@H](NC(=O)c2ccc(CN3CCC(c4cnc(N5C6CCC5CN(c5cc(-c7ccccc7O)nnc5N)C6)nc4)CC3)cc2)C(C)(C)C)cc1 with SMARCA4 (Homo sapiens) - Dmax?
Marked response: > 90%

Exam item: Note, next up: Cn1c(=O)n(C2CCC(=O)NC2=O)c2ccc(CCC(=O)N3CCC(c4cnc(N5C6CCC5CN(c5cc(-c7ccccc7O)nnc5N)C6)nc4)CC3)cc21 (stereo not drawn)
Marked response: > 90%

====

Recorded DC50, one value per entry.
# test_target: UniProtKB P51531
# procedure_details: SMARCA2 Western blot MV4-11 degradation
# Type: cell-based
# condition_set: MV4-11 cells, 24 h, read-out: SMARCA2 WB MV411 degradation 24 h: Average external-Abs DC50

Examples with their reported DC50 follow.
1) Cc1ncsc1-c1ccc(CNC(=O)[C@@H]2C[C@@H](O)CN2C(=O)[C@@H](NC(=O)[C@H]2CC3(C2)C[C@H](N2CCC(c4cnc(N5C6CCC5CN(c5cc(-c7ccccc7O)nnc5N)C6)nc4)CC2)C3)C(C)(C)C)cc1 (stereo partly drawn) [I-423] | < 100 nM
2) Cc1ncsc1-c1ccc(CNC(=O)[C@@H]2C[C@@H](O)CN2C(=O)[C@@H](NC(=O)C2CCC(CN3CCC(n4cc(-c5cc(-c6ccccc6O)nnc5N)cn4)CC3)CC2)C(C)(C)C)cc1 (stereo partly drawn) | < 100 nM

Exam item: Query (compound): Cc1ncsc1-c1ccc(C2(NC(=O)[C@@H]3C[C@@H](O)CN3C(=O)[C@@H](NC(=O)[C@H]3CC[C@H](c4cnc(N5C6CCC5CN(c5cc(-c7ccccc7O)nnc5N)C6)nc4)CC3)C(C)(C)C)CC2)cc1 ; field requested: DC50
Marked response: < 100 nM

====

# test_target: SMARCA2 (Homo sapiens, UniProt P51531)
# Sequence (P51531 whole entry): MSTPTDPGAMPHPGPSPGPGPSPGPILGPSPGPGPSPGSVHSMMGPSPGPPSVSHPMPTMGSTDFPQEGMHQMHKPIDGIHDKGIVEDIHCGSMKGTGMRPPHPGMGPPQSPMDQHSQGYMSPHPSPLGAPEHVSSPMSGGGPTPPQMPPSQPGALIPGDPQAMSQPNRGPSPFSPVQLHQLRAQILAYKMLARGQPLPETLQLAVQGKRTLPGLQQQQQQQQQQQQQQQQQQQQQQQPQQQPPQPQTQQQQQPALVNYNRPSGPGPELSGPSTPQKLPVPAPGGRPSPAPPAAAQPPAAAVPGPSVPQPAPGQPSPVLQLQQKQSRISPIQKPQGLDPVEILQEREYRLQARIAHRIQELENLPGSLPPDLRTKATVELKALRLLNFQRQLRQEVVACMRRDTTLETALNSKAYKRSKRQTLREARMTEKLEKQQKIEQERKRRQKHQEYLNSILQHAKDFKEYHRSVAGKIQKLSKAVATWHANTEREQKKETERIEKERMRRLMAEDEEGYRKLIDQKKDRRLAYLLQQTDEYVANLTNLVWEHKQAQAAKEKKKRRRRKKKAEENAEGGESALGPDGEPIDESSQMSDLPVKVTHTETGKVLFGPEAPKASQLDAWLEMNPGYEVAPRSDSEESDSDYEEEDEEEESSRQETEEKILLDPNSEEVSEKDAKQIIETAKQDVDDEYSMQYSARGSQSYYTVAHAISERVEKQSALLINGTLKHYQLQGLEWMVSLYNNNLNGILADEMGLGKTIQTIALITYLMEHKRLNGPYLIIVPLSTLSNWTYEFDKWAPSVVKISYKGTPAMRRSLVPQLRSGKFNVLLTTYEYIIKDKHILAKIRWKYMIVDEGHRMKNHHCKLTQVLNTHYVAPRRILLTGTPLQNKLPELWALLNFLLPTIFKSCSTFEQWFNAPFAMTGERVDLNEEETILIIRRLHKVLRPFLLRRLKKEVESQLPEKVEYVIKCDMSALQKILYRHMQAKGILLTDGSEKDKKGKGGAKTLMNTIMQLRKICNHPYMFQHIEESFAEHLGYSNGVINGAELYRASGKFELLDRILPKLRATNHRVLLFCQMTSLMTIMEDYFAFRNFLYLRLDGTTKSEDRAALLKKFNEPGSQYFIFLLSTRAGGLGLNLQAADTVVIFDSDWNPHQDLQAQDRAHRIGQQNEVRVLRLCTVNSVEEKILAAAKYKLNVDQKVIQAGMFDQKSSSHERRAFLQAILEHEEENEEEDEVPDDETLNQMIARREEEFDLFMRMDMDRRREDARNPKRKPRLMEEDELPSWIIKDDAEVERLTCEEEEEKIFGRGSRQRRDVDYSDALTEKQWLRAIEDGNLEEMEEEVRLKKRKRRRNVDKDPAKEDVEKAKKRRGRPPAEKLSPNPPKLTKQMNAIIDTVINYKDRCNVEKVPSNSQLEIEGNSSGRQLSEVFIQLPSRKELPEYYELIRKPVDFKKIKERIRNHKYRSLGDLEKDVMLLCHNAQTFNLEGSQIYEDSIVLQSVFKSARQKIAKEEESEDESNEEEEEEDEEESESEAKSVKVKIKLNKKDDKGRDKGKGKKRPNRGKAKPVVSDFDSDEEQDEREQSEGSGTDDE
# procedure_details: MSD SMARCA2 degradation in A549 cell line
# Format: cell-based
# condition_set: A549 cells, 24 h, read-out: SMARCA2 MSD A549 degradation 24 h: Average external-Abs DC50
result_type: DC50

Examples with their reported DC50 follow.
1) Cc1ncsc1-c1ccc(CNC(=O)[C@@H]2C[C@@H](O)CN2C(=O)[C@@H](NC(=O)CCCCN2CCC(c3cnc(N4C5CCC4CN(c4cc(-c6ccccc6O)nnc4N)C5)nc3)CC2)C(C)(C)C)cc1 | > 1000 nM
2) Cc1ncsc1-c1ccc(CNC(=O)[C@@H]2C[C@@H](O)CN2C(=O)[C@@H](NC(=O)[C@H]2CC[C@@H](N3CCC(N4CCC(n5cc(-c6cc(-c7ccccc7O)nnc6N)cn5)CC4)CC3)CC2)C(C)(C)C)cc1 | > 1000 nM
3) Cc1ncsc1-c1ccc(CNC(=O)[C@@H]2C[C@@H](O)CN2C(=O)[C@@H](NC(=O)c2ccc(N3CCC(n4cc(-c5cc(-c6ccccc6O)nnc5N)cn4)CC3)cc2)C(C)(C)C)cc1 | > 1000 nM
4) Cc1ncsc1-c1ccc(CNC(=O)[C@@H]2C[C@@H](O)CN2C(=O)[C@@H](NC(=O)C2CC3(C2)CC(N2CCC(n4cc(-c5cc(-c6ccccc6O)nnc5N)cn4)CC2)C3)C(C)(C)C)cc1 (stereo partly shown) | 100 to 500 nM
5) Cc1ncsc1-c1ccc(CNC(=O)[C@@H]2C[C@@H](O)CN2C(=O)[C@@H](NC(=O)[C@H]2C[C@H](N3CCC(n4cc(-c5cc(-c6ccccc6O)nnc5N)cn4)CC3)C2)C(C)(C)C)cc1 | > 1000 nM
6) Cc1ncsc1-c1ccc(CNC(=O)[C@@H]2C[C@@H](O)CN2C(=O)[C@@H](NC(=O)Cc2ccc(N3CCC(n4cc(-c5cc(-c6ccccc6O)nnc5N)cn4)CC3)cc2)C(C)(C)C)cc1 | > 1000 nM

Exam item: Item Cn1c(=O)n(C2CCC(=O)NC2=O)c2ccc(C3CC4(C3)CC(N3CCC(c5cnc(N6C7CCC6CN(c6cc(-c8ccccc8O)nnc6N)C7)nc5)CC3)C4)cc21 (single isomer, unassigned) [I-536 (P2)] with SMARCA2 (Homo sapiens, UniProt P51531) - DC50?
Marked response: < 100 nM

Exam item: Note, next up: Cc1ncsc1-c1ccc(CNC(=O)[C@@H]2C[C@@H](O)CN2C(=O)[C@@H](NC(=O)CCN2CCC(n3cc(-c4cc(-c5ccccc5O)nnc4N)cn3)CC2)C(C)(C)C)cc1
Marked response: > 1000 nM

Exam item: Note, next up: CC(C)(C)[C@H](NC(=O)[C@H]1CC2(C1)C[C@H](N1CCC(c3cnc(N4C5CCC4CN(c4cc(-c6ccccc6O)nnc4N)C5)nc3)CC1)C2)C(=O)N1C[C@H](O)C[C@H]1C(=O)NOc1ccc(-c2ccccc2F)cc1 (stereo partly shown) [I-538]
Marked response: > 1000 nM

Exam item: Note, next up: Cc1ncsc1-c1ccc(CNC(=O)[C@@H]2C[C@@H](O)CN2C(=O)[C@@H](NC(=O)CCCNCc2cccc(C#Cc3cc(NC(=O)Nc4cc(F)ncc4CO)ccn3)c2)C(C)(C)C)cc1
Marked response: > 1000 nM

Exam item: Note, next up: Cc1ncsc1-c1ccc(CNC(=O)[C@@H]2C[C@@H](O)CN2C(=O)[C@@H](NC(=O)N2CCN(Cc3cnc(N4C5CCC4CN(c4cc(-c6ccccc6O)nnc4N)C5)nc3)CC2)C(C)(C)C)cc1
Marked response: 100 to 500 nM

Exam item: Note, next up: Cc1ncsc1-c1ccc(CNC(=O)[C@@H]2C[C@@H](O)CN2C(=O)C(NC(=O)C[C@H]2CC[C@@H](N3CCC(c4cnc(N5C6CCC5CN(c5cc(-c7ccccc7O)nnc5N)C6)nc4)CC3)CC2)C(C)(C)C)cc1 (stereo partly shown)
Marked response: 100 to 500 nM
